# System: LG0567-F671-PDC KRAS tumor spheroid viability
# procedure_text: Anticancer human tumor LG0567-F671-PDC patient-derived lung adenocarcinoma cell line growth inhibition [KRAS2]
# condition_label: second compound 1 µM; first compound 3.16 µM; active compounds read low; spheroids with HUVEC and MSC
The label is t for viability, T/C below 9% and f for viability, T/C equal to or exceeding 9%.

{"columns": ["compound", "group_label"],
 "data": [
  ["COc1cc2nccc(Oc3ccc(NC(=O)C4(C(=O)Nc5ccc(F)cc5)CC4)cc3)c2cc1OC + CNCc1ccccc1-c1csc(C(C)Nc2nc(C)nc3cc(OC)c(OC)cc23)c1", "f"],
  ["CCNC(=O)CC1N=C(c2ccc(Cl)cc2)c2cc(OC)ccc2-n2c(C)nnc21 (stereo unspecified) + CC1OCC2(CCN(c3cnc(Sc4ccnc(N)c4Cl)c(N)n3)CC2)C1N", "t"],
  ["COc1cc2nccc(Oc3ccc(NC(=O)C4(C(=O)Nc5ccc(F)cc5)CC4)cc3)c2cc1OC + C=CC(=O)N1CCN(c2nc(OCC3CCCN3C)nc3c2CCN(c2cccc4cccc(C)c24)C3)CC1CC#N", "f"],
  ["CCNC(=O)CC1N=C(c2ccc(Cl)cc2)c2cc(OC)ccc2-n2c(C)nnc21 (stereo unspecified) + CNCc1ccccc1-c1csc(C(C)Nc2nc(C)nc3cc(OC)c(OC)cc23)c1", "f"],
  ["COc1cc(Nc2ncc3c(n2)-c2ccc(Cl)cc2C(c2c(F)cccc2OC)=NC3)ccc1C(=O)O + CC1OCC2(CCN(c3cnc(Sc4ccnc(N)c4Cl)c(N)n3)CC2)C1N", "f"]
]}

====

# Test system: LG0567-F671-PDC KRAS tumor spheroid viability
# procedure_text: Anticancer human tumor LG0567-F671-PDC cell line growth inhibition [KRAS2];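 note: drug exposure lasted seven days after spheroids formed for three days; 100% = DMSO vehicle control viability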
# condition_label: second compound 3.16 µM; first compound 0.0316 µM; active compounds read low; spheroids with HUVEC and MSC
property: viability, T/C (%)

{"columns": ["molecule", "reported_measurement"],
 "data": [
  ["Cn1ncnc1[C@H]1c2n[nH]c(=O)c3cc(F)cc(c23)N[C@@H]1c1ccc(F)cc1 + C=CC(=O)N1CCN(c2nc(OCC3CCCN3C)nc3c2CCN(c2cccc4cccc(C)c24)C3)CC1CC#N", 10.8],
  ["CC(=O)Nc1cccc(-n2c(=O)n(C3CC3)c(=O)c3c(Nc4ccc(I)cc4F)n(C)c(=O)c(C)c32)c1 + C=CC(=O)N1CCN(c2nc(OCC3CCCN3C)nc3c2CCN(c2cccc4cccc(C)c24)C3)CC1CC#N", 4.58],
  ["CC(C)NCC(C(=O)N1CCN(c2ncnc3c2C(C)CC3O)CC1)c1ccc(Cl)cc1 (stereo not given) + C=CC(=O)N1CCN(c2nc(OCC3CCCN3C)nc3c2CCN(c2cccc4cccc(C)c24)C3)CC1CC#N", 8.92],
  ["Cn1nccc1Nc1nccc(-c2cc3c(s2)C(C)(C)N(CCN2CCOCC2)C3=O)n1 + CNCc1ccccc1-c1csc(C(C)Nc2nc(C)nc3cc(OC)c(OC)cc23)c1", 73.9],
  ["CC(=O)OC12COC1CC(O)C1(C)C(=O)C(O)C3=C(C)C(OC(=O)C(O)C(NC(=O)OC(C)(C)C)c4ccccc4)CC(O)(C(OC(=O)c4ccccc4)C21)C3(C)C (stereo not given) + CC1OCC2(CCN(c3cnc(Sc4ccnc(N)c4Cl)c(N)n3)CC2)C1N", 12.3],
  ["COC(=O)c1ccc2c(C(=Nc3ccc(N(C)C(=O)CN4CCN(C)CC4)cc3)c3ccccc3)c(O)[nH]c2c1 + C=CC(=O)N1CCN(c2nc(=O)n(-c3c(C)ccnc3C(C)C)c3nc(-c4c(O)cccc4F)c(F)cc23)C(C)C1", 18.8],
  ["CC(C)NCC(C(=O)N1CCN(c2ncnc3c2C(C)CC3O)CC1)c1ccc(Cl)cc1 (stereo not given) + CNCc1ccccc1-c1csc(C(C)Nc2nc(C)nc3cc(OC)c(OC)cc23)c1", 0.25],
  ["CCN1CCN(Cc2ccc(Nc3ncc(F)c(-c4cc(F)c5nc(C)n(C(C)C)c5c4)n3)nc2)CC1 + CNCc1ccccc1-c1csc(C(C)Nc2nc(C)nc3cc(OC)c(OC)cc23)c1", 0.63],
  ["CC(=O)Nc1cccc(-n2c(=O)n(C3CC3)c(=O)c3c(Nc4ccc(I)cc4F)n(C)c(=O)c(C)c32)c1 + CC1OCC2(CCN(c3cnc(Sc4ccnc(N)c4Cl)c(N)n3)CC2)C1N", 3.95],
  ["COc1cc2nccc(Oc3ccc(NC(=O)C4(C(=O)Nc5ccc(F)cc5)CC4)cc3)c2cc1OC + COc1cc2nc(C)nc(NC(C)c3cc(N)cc(C(F)(F)F)c3)c2cc1OC1CCOC1", 63.7]
]}
